Consider the following proteins; for each one, report its kcat.
# ASSAY TARGET: T1, Z-Phe-Arg-MCA
# T1 chain: FR

Q: // Input: Medaka EP-1 serine protease domain mutant K63R (protein) VVGGVNAEKGAWPWMVSLHWRGRHGCGASLIGRDWLLTAAHCVYGRNTHLQYWSAVLGLHAQSSMNSQEVQIRQVDRIIINKNYNRRTKEADIAMMHLQQPVNFTEWVLPVCLASEDQHFPAGRRCFIAGWGRDAEGGSLPDILQEAEVPLVDQDECQRLLPEYTFTSSMLCAGYPEGGVDSCQGDSGGPLMCLEDARWTLIGVTSFGVGCGRPERPGAYARVSAFTSWIAETRRSSFSDLD . Output its kcat only.
Result: 0.0233 s⁻¹

Q: // Input: Bovine EP serine protease (Novagen) (protein) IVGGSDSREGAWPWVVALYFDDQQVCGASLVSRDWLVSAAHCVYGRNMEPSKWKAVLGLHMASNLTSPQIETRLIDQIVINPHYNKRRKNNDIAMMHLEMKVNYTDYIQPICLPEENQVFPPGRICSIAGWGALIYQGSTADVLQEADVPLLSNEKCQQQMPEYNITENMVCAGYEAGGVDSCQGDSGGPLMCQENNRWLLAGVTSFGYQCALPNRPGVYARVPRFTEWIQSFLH . Output its kcat only.
Result: 12 s⁻¹

Q: // Input: Bovine EP serine protease (New England Biolabs) (protein) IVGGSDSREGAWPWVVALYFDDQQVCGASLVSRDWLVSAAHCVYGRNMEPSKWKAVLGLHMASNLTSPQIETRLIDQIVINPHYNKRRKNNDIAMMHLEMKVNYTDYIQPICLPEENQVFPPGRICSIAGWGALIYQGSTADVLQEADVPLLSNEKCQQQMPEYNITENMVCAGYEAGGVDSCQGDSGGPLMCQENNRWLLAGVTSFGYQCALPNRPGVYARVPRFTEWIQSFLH . Output its kcat only.
Result: 10 s⁻¹

Q: // Input: Medaka EP-1 serine protease domain (wild-type) (protein) VVGGVNAEKGAWPWMVSLHWRGRHGCGASLIGRDWLLTAAHCVYGKNTHLQYWSAVLGLHAQSSMNSQEVQIRQVDRIIINKNYNRRTKEADIAMMHLQQPVNFTEWVLPVCLASEDQHFPAGRRCFIAGWGRDAEGGSLPDILQEAEVPLVDQDECQRLLPEYTFTSSMLCAGYPEGGVDSCQGDSGGPLMCLEDARWTLIGVTSFGVGCGRPERPGAYARVSAFTSWIAETRRSSFSDLD . Output its kcat only.
Result: 0.0483 s⁻¹

Q: // Input: porcine EP serine protease domain (Ile800 to His1034) (protein) IVGGNDSREGAWPWVVALYYNGQLLCGASLVSRDWLVSAAHCVYGRNLEPSKWKAILGLHMTSNLTSPQIVTRLIDEIVINPHYNRRRKDSDIAMMHLEFKVNYTDYIQPICLPEENQVFPPGRICSIAGWGKVIYQGSPADILQEADVPLLSNEKCQQQMPEYNITENMMCAGYEEGGIDSCQGDSGGPLMCLENNRWLLAGVTSFGYQCALPNRPGVYARVPKFTEWIQSFLH . Output its kcat only.
Result: 0.917 s⁻¹

Q: // Input: Medaka EP-1 serine protease domain mutant P193E (protein) VVGGVNAEKGAWPWMVSLHWRGRHGCGASLIGRDWLLTAAHCVYGKNTHLQYWSAVLGLHAQSSMNSQEVQIRQVDRIIINKNYNRRTKEADIAMMHLQQPVNFTEWVLPVCLASEDQHFPAGRRCFIAGWGRDAEGGSLPDILQEAEVPLVDQDECQRLLPEYTFTSSMLCAGYEEGGVDSCQGDSGGPLMCLEDARWTLIGVTSFGVGCGRPERPGAYARVSAFTSWIAETRRSSFSDLD . Output its kcat only.
Result: 0.0283 s⁻¹

Q: // Input: Medaka EP-1 serine protease domain mutant E173A (protein) VVGGVNAEKGAWPWMVSLHWRGRHGCGASLIGRDWLLTAAHCVYGKNTHLQYWSAVLGLHAQSSMNSQEVQIRQVDRIIINKNYNRRTKEADIAMMHLQQPVNFTEWVLPVCLASEDQHFPAGRRCFIAGWGRDAEGGSLPDILQEAEVPLVDQDACQRLLPEYTFTSSMLCAGYPEGGVDSCQGDSGGPLMCLEDARWTLIGVTSFGVGCGRPERPGAYARVSAFTSWIAETRRSSFSDLD . Output its kcat only.
Result: 0.0383 s⁻¹

Q: // Input: Medaka EP-1 serine protease domain mutant T105E (protein) VVGGVNAEKGAWPWMVSLHWRGRHGCGASLIGRDWLLTAAHCVYGKNTHLQYWSAVLGLHAQSSMNSQEVQIRQVDRIIINKNYNRREKEADIAMMHLQQPVNFTEWVLPVCLASEDQHFPAGRRCFIAGWGRDAEGGSLPDILQEAEVPLVDQDECQRLLPEYTFTSSMLCAGYPEGGVDSCQGDSGGPLMCLEDARWTLIGVTSFGVGCGRPERPGAYARVSAFTSWIAETRRSSFSDLD . Output its kcat only.
Result: 0.0333 s⁻¹
